- Measured target: T1, TNFR1 (Homo sapiens, UniProt P19438)
- T1 chain: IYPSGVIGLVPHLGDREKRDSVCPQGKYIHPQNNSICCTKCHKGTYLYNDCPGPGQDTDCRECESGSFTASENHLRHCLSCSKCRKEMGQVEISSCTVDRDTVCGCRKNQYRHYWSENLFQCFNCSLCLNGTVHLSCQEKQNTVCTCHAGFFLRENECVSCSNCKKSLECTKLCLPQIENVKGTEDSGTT
- Test method notes: yeast display SC50
Endpoint: apparent Kd (screen) (nM)
Entry rule: numbers only, all in nM.

Form: binder = K107Y (designed binder) SMEEEVEKAAKEYEKKKKEAIEKHLEKLKAKDKEAAERFLKELEEAAKEYAKDEAKTMSEEEAKRRAKKYKEKVLLSELSEEEQKEIKEAEEKLVRTILKYVEEAAY ; apparent Kd (screen) = 2.73

Entry E22N (designed binder) SMEEEVEKAAKEYEKKKKEAINKHLEKLKAKDKEAAERFLKELEEAAKEYAKDEAKTMSEEEAKRRAKKYKEKVLLSELSEEEQKEIKEAEEKLVRTILKYVEEAAK ; apparent Kd (screen) = 0.869

Form field apparent Kd (screen), entry S59G (designed binder) SMEEEVEKAAKEYEKKKKEAIEKHLEKLKAKDKEAAERFLKELEEAAKEYAKDEAKTMGEEEAKRRAKKYKEKVLLSELSEEEQKEIKEAEEKLVRTILKYVEEAAK : 0.446

Memo: K73S (designed binder) SMEEEVEKAAKEYEKKKKEAIEKHLEKLKAKDKEAAERFLKELEEAAKEYAKDEAKTMSEEEAKRRAKKYKESVLLSELSEEEQKEIKEAEEKLVRTILKYVEEAAK , reported apparent Kd (screen): 9.41

The recorded apparent Kd (screen) for E26L (designed binder) SMEEEVEKAAKEYEKKKKEAIEKHLLKLKAKDKEAAERFLKELEEAAKEYAKDEAKTMSEEEAKRRAKKYKEKVLLSELSEEEQKEIKEAEEKLVRTILKYVEEAAK is 0.869

Entry E60F (designed binder) SMEEEVEKAAKEYEKKKKEAIEKHLEKLKAKDKEAAERFLKELEEAAKEYAKDEAKTMSFEEAKRRAKKYKEKVLLSELSEEEQKEIKEAEEKLVRTILKYVEEAAK , apparent Kd (screen) reported as 0.956

# binder E7I (designed binder) SMEEEVIKAAKEYEKKKKEAIEKHLEKLKAKDKEAAERFLKELEEAAKEYAKDEAKTMSEEEAKRRAKKYKEKVLLSELSEEEQKEIKEAEEKLVRTILKYVEEAAK ; its apparent Kd (screen) = 26.9

The recorded apparent Kd (screen) for K73D (designed binder) SMEEEVEKAAKEYEKKKKEAIEKHLEKLKAKDKEAAERFLKELEEAAKEYAKDEAKTMSEEEAKRRAKKYKEDVLLSELSEEEQKEIKEAEEKLVRTILKYVEEAAK is 5.84
